assayed-system: Carbonic anhydrase 9 (Homo sapiens)
assay-procedure: Activation of human recombinant CA9 catalytic domain by stopped flow CO2 hydration assay
Reported values of KA for individual entries
Respond with the bare value in µM.

Examples with their reported KA follow.
{"columns": ["structure-smiles-string", "assayed-system", "reported-result"],
 "data": [
  ["N[C@@H](Cc1c[nH]cn1)C(=O)NNS(=O)(=O)c1ccc(I)cc1", "Carbonic anhydrase 9 (Homo sapiens)", 14.1],
  ["N[C@@H](Cc1c[nH]cn1)C(=O)NNS(=O)(=O)c1c(F)c(F)c(F)c(F)c1F", "Carbonic anhydrase 9 (Homo sapiens)", 30.2]
]}

Query: Name the recorded KA for N[C@@H](Cc1c[nH]cn1)C(=O)NNS(=O)(=O)c1ccc(Br)cc1 .
Result: 13.8

###

assayed-system: Carbonic anhydrase 1 (Homo sapiens) (UniProt P00915)
Sequence (P00915 2-261 limits assumed): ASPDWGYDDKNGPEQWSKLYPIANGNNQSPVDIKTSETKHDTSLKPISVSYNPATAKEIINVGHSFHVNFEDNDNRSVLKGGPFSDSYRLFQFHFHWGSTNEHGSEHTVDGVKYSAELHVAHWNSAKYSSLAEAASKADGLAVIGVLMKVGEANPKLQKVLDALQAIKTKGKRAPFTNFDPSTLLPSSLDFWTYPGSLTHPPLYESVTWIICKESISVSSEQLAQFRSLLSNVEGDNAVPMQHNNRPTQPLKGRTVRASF
assay-procedure: Activation of human recombinant CA1 by stopped flow CO2 hydration assay
// assign rule met if KA falls strictly below 50 µM, else rule not met (ties count as rule not met)

Solved entries (count: 3):
{"columns": ["structure-smiles-string", "class-name"],
 "data": [
  ["N[C@@H](Cc1c[nH]cn1)C(=O)NNS(=O)(=O)c1ccc(Cl)cc1", "rule not met"],
  ["Cc1ccc(S(=O)(=O)NNC(=O)[C@@H](N)Cc2c[nH]cn2)cc1", "rule met"],
  ["COc1ccc(S(=O)(=O)NNC(=O)[C@@H](N)Cc2c[nH]cn2)cc1", "rule met"]
]}

Query: Input N[C@@H](Cc1c[nH]cn1)C(=O)NNS(=O)(=O)c1ccc(C(F)(F)F)cc1 ; condition: KA strictly below 50 µM. Does it hold?
Result: rule met

Query: Input N[C@@H](Cc1c[nH]cn1)C(=O)NNS(=O)(=O)c1ccc(F)cc1 ; condition: KA strictly below 50 µM. Does it hold?
Result: rule not met

###

assayed-system: Carbonic anhydrase 2 (Homo sapiens)
assay-procedure: Activation of human recombinant CA2 by stopped flow CO2 hydration assay
// assign Condition met if KA falls strictly below 40 µM, else Condition not met (ties count as Condition not met)

Solved entries (count: 3):
{"columns": ["structure-smiles-string", "class-name"],
 "data": [
  ["N[C@@H](Cc1c[nH]cn1)C(=O)NNS(=O)(=O)c1ccc(C(F)(F)F)cc1", "Condition not met"],
  ["N[C@@H](Cc1c[nH]cn1)C(=O)NNS(=O)(=O)c1c(F)c(F)c(F)c(F)c1F", "Condition not met"],
  ["COc1ccc(S(=O)(=O)NNC(=O)[C@@H](N)Cc2c[nH]cn2)cc1", "Condition met"]
]}

Query: Input N#Cc1ccc(S(=O)(=O)NNC(=O)[C@@H](N)Cc2c[nH]cn2)cc1 ; condition: KA strictly below 40 µM. Does it hold?
Result: Condition met

Query: Input N[C@@H](Cc1c[nH]cn1)C(=O)NNS(=O)(=O)c1ccc(F)cc1 ; condition: KA strictly below 40 µM. Does it hold?
Result: Condition not met

###

Reported values of KA for individual entries
assayed-system: Carbonic anhydrase 2 (Homo sapiens) (UniProt P00918)
assay-procedure: Activation of human recombinant CA2 by stopped flow CO2 hydration assay
Respond with the bare value in µM.

Examples with their reported KA follow.
{"columns": ["structure-smiles-string", "reported-property", "quantity-unit", "reported-result"],
 "data": [
  ["N[C@@H](Cc1c[nH]cn1)C(=O)NNS(=O)(=O)c1ccc(Br)cc1", "KA", "µM", 19.6],
  ["CC(C)(C)c1ccc(S(=O)(=O)NNC(=O)[C@@H](N)Cc2c[nH]cn2)cc1", "KA", "µM", 45.2],
  ["N[C@@H](Cc1c[nH]cn1)C(=O)NNS(=O)(=O)c1ccc(I)cc1", "KA", "µM", 0.21],
  ["N[C@@H](Cc1c[nH]cn1)C(=O)NNS(=O)(=O)c1ccc([N+](=O)[O-])cc1", "KA", "µM", 45.6],
  ["N[C@@H](Cc1c[nH]cn1)C(=O)NNS(=O)(=O)c1ccc(-c2ccccc2)cc1", "KA", "µM", 51.7],
  ["N[C@@H](Cc1c[nH]cn1)C(=O)NNS(=O)(=O)c1ccc2ccccc2c1", "KA", "µM", 18],
  ["Cc1ccc(S(=O)(=O)NNC(=O)[C@@H](N)Cc2c[nH]cn2)cc1", "KA", "µM", 25]
]}

Field: next compound
Query: Name the recorded KA for N[C@@H](Cc1c[nH]cn1)C(=O)NNS(=O)(=O)c1ccc(Cl)cc1 .
Result: 6.53
